Assay: Selectivity index, ratio of IC50 for inhibition of BChE (unknown origin) using butyrylthiocholine iodide as substrate to IC50 for inhibition of AChE (unknown origin) using acetylthiocholine iodide as substrate
Listed compounds paired with reported Ratio IC50

Compound: Cc1noc(-c2ccc(N)cc2)n1
Ratio IC50: 1320
//
Compound: CCCCOc1cc(-c2nc(C)no2)ccc1N
Ratio IC50: 3010
//
Compound: CCCNC(C)C(=O)Nc1c(C)csc1-c1nc(-c2ccccc2N)no1 (stereo unspecified)
Ratio IC50: 449
//
Compound: CCCNC(C)C(=O)Nc1c(C)csc1-c1nc(-c2ccccc2)no1 (stereo unspecified)
Ratio IC50: 325
//
Compound: Cc1cc(NS(=O)(=O)c2ccc(-n3cc(COc4ccccc4-c4nc(-c5ccccc5)no4)nn3)cc2)no1
Ratio IC50: 250
//
Compound: Nc1ccc(-c2nc(-c3ccccc3N)no2)cc1
Ratio IC50: 427
//
Compound: CCCNC(C)C(=O)Nc1c(C)csc1-c1nc(C)no1 (stereo unspecified)
Ratio IC50: 622
//
Compound: CCCNC(C)C(=O)Nc1c(C)csc1-c1nc(Cc2ccccc2)no1 (stereo unspecified)
Ratio IC50: 856
//
Compound: CC(CCCCn1c(=O)c2c(ncn2C)n(C)c1=O)=NNC(=O)COc1ccccc1-c1nc(-c2ccccc2)no1
Ratio IC50: 159
//
Compound: CCCCOc1cc(-c2nc(-c3ccccc3)no2)ccc1N
Ratio IC50: 60.3
//
Compound: Cc1cc(NS(=O)(=O)c2ccc(NC(=O)COc3ccccc3-c3nc(-c4ccccc4)no3)cc2)no1
Ratio IC50: 283

---

Test system: UniProtKB P27338
Assay: Inhibition of human recombinant MAO-B expressed in baculovirus infected BTI insect cells measured after 30 to 90 sec by absorbance based assay
Structures can show the parent of a compound that is named as a salt.
Parameter: IC50 (µM)

Compound: CCCNC(C)C(=O)Nc1c(C)csc1-c1nc(-c2ccccc2)no1 (centres undefined)
Value units: µM
Readout number: 225
--
Compound: CCCNC(C)C(=O)Nc1c(C)csc1-c1nc(-c2ccccc2N)no1 (centres undefined)
Value units: µM
Readout number: 289
--
Compound: OC(CCN1CCCCC1)(c1ccccc1)C1CC2C=CC1C2 (centres undefined) [BIPERIDEN HYDROCHLORIDE]
Value units: µM
Readout number: 266
--
Compound: CCCNC(C)C(=O)Nc1c(C)csc1-c1nc(Cc2ccccc2)no1 (centres undefined)
Value units: µM
Readout number: 74.7

---

Test system: UniProt:P06276
Sequence (P06276 whole entry): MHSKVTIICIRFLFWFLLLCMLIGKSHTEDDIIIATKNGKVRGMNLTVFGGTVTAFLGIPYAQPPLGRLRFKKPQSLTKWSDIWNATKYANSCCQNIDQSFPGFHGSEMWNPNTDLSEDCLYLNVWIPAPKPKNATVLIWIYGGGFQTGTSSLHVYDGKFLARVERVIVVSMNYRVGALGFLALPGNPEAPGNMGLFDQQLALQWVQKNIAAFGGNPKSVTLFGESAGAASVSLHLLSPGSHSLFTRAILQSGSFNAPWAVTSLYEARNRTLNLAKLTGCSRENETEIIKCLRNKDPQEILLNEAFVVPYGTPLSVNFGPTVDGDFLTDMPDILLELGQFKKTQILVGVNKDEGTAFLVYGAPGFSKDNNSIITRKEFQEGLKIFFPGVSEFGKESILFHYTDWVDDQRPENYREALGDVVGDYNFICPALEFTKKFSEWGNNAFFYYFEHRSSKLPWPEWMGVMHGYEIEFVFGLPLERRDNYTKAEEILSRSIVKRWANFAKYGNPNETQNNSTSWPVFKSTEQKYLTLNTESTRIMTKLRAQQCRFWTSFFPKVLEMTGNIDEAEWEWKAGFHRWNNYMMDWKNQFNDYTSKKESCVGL
Assay: Inhibition of human BChE using butyrylthiocholine iodide as substrate preincubated for 5 mins followed by substrate addition and measured after 2 mins by absorbance based microplate reader
pIC50: −log10 of the molar value.
Parameter: pIC50

Smiles notation: Cc1cc(=O)oc2cc(OCc3ccc(-c4noc([C@@H]5CCCN5)n4)cc3)ccc12
Readout number: 5.09

---

Test system: Amine oxidase [flavin-containing] A (Homo sapiens, UniProt P21397)
Sequence (P21397 whole entry): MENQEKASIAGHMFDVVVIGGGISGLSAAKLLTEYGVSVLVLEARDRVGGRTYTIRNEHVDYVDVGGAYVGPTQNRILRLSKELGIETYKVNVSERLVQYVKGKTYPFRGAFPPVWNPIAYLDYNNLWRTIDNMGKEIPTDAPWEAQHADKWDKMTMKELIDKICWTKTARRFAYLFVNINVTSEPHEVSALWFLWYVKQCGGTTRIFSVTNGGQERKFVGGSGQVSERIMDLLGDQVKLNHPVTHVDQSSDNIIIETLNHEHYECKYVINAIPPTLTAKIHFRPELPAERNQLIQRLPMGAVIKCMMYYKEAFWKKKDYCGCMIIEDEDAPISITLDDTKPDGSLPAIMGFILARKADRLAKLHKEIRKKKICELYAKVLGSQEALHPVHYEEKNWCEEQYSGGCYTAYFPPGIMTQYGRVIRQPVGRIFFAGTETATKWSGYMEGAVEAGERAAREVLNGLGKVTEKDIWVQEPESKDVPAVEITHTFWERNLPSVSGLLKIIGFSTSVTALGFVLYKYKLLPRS
Assay: Inhibition of MAO-A (unknown origin) measured after 30 to 90 sec by absorbance based assay
Measurement setup: human; time 30-90 sec
Parameter: inhibition (INH)

Smiles notation: Cc1cc(NS(=O)(=O)c2ccc(-n3cc(COc4ccccc4-c4nc(-c5ccccc5)no4)nn3)cc2)no1
Result: Not Active
--
Smiles notation: Cc1cc(NS(=O)(=O)c2ccc(NC(=O)COc3ccccc3-c3nc(-c4ccccc4)no3)cc2)no1
Result: Not Active
--
Smiles notation: Nc1ccc(-c2nc(-c3ccccc3N)no2)cc1
Result: Not Active

---

Test system: Acetylcholinesterase (Homo sapiens, UniProt P22303)
Sequence (P22303 whole entry): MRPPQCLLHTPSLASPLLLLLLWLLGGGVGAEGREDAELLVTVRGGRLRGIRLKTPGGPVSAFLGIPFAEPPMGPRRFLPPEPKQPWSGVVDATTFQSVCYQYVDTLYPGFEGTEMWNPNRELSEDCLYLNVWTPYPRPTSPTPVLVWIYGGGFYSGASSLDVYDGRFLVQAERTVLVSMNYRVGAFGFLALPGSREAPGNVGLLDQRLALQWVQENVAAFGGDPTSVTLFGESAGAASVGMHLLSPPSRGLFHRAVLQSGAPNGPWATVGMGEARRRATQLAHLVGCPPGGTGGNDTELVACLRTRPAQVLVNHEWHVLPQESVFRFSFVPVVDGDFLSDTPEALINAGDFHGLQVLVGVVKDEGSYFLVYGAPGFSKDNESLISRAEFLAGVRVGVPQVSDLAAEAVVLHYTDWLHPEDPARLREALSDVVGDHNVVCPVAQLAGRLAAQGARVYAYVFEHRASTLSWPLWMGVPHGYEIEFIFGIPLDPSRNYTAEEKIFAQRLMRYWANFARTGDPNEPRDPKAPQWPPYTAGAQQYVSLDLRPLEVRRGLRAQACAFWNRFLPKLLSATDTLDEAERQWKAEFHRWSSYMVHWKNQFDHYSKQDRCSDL
Assay: Inhibition of AChE (unknown origin) using acetylthiocholine iodide as substrate incubated for 15 mins by DTNB reagent based ELISA
Exam item: assign true to entries whose IC50 is below 100 nM and false to entries at or above 100 nM. Note that a value of exactly 100 nM receives false.

Molecule: CC(CCCCn1c(=O)c2c(ncn2C)n(C)c1=O)=NNC(=O)COc1ccccc1-c1nc(-c2ccccc2)no1
Answer label: true
--
Molecule: CCCNC(C)C(=O)Nc1c(C)csc1-c1nc(C)no1 (configuration not stated)
Answer label: false
--
Molecule: CCCNC(C)C(=O)Nc1c(C)csc1-c1nc(-c2ccccc2N)no1 (configuration not stated)
Answer label: false
--
Molecule: Cc1cc(NS(=O)(=O)c2ccc(NC(=O)COc3ccccc3-c3nc(-c4ccccc4)no3)cc2)no1
Answer label: true
--
Molecule: Cc1noc(-c2ccc(N)cc2)n1
Answer label: false
--
Molecule: CCCNC(C)C(=O)Nc1c(C)csc1-c1nc(Cc2ccccc2)no1 (configuration not stated)
Answer label: true
--
Molecule: Nc1ccc(-c2nc(-c3ccccc3N)no2)cc1
Answer label: false
--
Molecule: Cc1cc(NS(=O)(=O)c2ccc(-n3cc(COc4ccccc4-c4nc(-c5ccccc5)no4)nn3)cc2)no1
Answer label: false
--
Molecule: CCCCOc1cc(-c2nc(C)no2)ccc1N
Answer label: true
--
Molecule: CCCCOc1cc(-c2nc(-c3ccccc3)no2)ccc1N
Answer label: false

---

Test system: Amine oxidase [flavin-containing] B (Homo sapiens, UniProt P27338)
Sequence (P27338 whole entry): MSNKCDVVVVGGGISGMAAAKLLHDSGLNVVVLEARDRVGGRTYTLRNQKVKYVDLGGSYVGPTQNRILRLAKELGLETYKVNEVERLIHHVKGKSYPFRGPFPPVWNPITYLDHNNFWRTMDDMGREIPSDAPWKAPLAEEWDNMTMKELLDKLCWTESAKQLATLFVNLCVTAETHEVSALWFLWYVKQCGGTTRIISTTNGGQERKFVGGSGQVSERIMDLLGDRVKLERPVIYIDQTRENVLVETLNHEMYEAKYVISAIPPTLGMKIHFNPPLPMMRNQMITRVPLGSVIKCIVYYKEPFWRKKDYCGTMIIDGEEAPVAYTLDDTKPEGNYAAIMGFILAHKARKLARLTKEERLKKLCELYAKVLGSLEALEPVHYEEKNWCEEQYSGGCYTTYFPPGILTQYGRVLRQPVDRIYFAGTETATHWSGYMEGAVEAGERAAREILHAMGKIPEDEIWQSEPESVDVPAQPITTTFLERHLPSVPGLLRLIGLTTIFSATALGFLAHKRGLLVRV
Assay: Inhibition of human recombinant MAO-B expressed in baculovirus infected BTI insect cells measured after 30 to 90 sec by absorbance based assay
Measurement setup: human, bti; time 30-90 sec
Parameter: inhibition (INH)

Compound: CCCCOc1cc(-c2nc(C)no2)ccc1N
Result: Not Active
//
Compound: CC(CCCCn1c(=O)c2c(ncn2C)n(C)c1=O)=NNC(=O)COc1ccccc1-c1nc(Cc2ccccc2)no1
Result: Not Active
//
Compound: CCCCOc1cc(-c2nc(-c3ccccc3)no2)ccc1N
Result: Not Active
//
Compound: Cc1cc(NS(=O)(=O)c2ccc(NC(=O)COc3ccccc3-c3nc(-c4ccccc4)no3)cc2)no1
Result: Not Active
//
Compound: Cc1cc(NS(=O)(=O)c2ccc(-n3cc(COc4ccccc4-c4nc(-c5ccccc5)no4)nn3)cc2)no1
Result: Not Active
//
Compound: Cc1cc(NS(=O)(=O)c2ccc(-n3cc(COc4ccccc4-c4nc(-c5ccc(C(F)(F)F)cc5)no4)nn3)cc2)no1
Result: Not Active
//
Compound: CC(CCCCn1c(=O)c2c(ncn2C)n(C)c1=O)=NNC(=O)COc1ccccc1-c1nc(-c2ccccc2)no1
Result: Not Active
//
Compound: CCCNC(C)C(=O)Nc1c(C)csc1-c1nc(C)no1 (configuration not stated)
Result: Not Active
//
Compound: Cc1noc(-c2ccc(N)cc2)n1
Result: Not Active
//
Compound: CC(=NNC(=O)COc1ccccc1-c1nc(Cc2ccccc2)no1)c1nnn(-c2ccc(S(N)(=O)=O)cc2)c1C
Result: Not Active
//
Compound: Cc1cc(NS(=O)(=O)c2ccc(-n3cc(COc4ccccc4-c4nc(Cc5ccccc5)no4)nn3)cc2)no1
Result: Not Active
//
Compound: Nc1ccc(-c2nc(-c3ccccc3N)no2)cc1
Result: Not Active

---

Test system: Acetylcholinesterase (Homo sapiens, UniProt P22303)
Assay: Inhibition of human recombinant AChE using acetylthiocholine iodide as substrate preincubated for 5 mins followed by substrate addition and measured after 2 mins by absorbance based microplate reader

Smiles notation: Cc1cc(=O)oc2cc(OCc3ccc(-c4noc([C@@H]5CCCN5)n4)cc3)ccc12
IC50 [µM]: 77.6

---

Test system: Amine oxidase [flavin-containing] A (Homo sapiens, UniProt P21397)
pIC50: −log10 of the molar value.
// Not satisfied strictly below 3 in pIC50; Satisfied otherwise

Compound: Cc1cc(NS(=O)(=O)c2ccc(-n3cc(COc4ccccc4-c4nc(Cc5ccccc5)no4)nn3)cc2)no1
Test system: Amine oxidase [flavin-containing] A (Homo sapiens, UniProt P21397)
Answer label: Satisfied

Compound: CCCNC(C)C(=O)Nc1c(C)csc1-c1nc(Cc2ccccc2)no1 (configuration not stated)
Test system: Amine oxidase [flavin-containing] A (Homo sapiens, UniProt P21397)
Answer label: Satisfied

Compound: CCCNC(C)C(=O)Nc1c(C)csc1-c1nc(C)no1 (configuration not stated)
Test system: Amine oxidase [flavin-containing] A (Homo sapiens, UniProt P21397)
Answer label: Not satisfied

Compound: Cc1cc(NS(=O)(=O)c2ccc(-n3cc(COc4ccccc4-c4nc(-c5ccc(C(F)(F)F)cc5)no4)nn3)cc2)no1
Test system: Amine oxidase [flavin-containing] A (Homo sapiens, UniProt P21397)
Answer label: Satisfied

Compound: CCCNC(C)C(=O)Nc1c(C)csc1-c1nc(-c2ccccc2N)no1 (configuration not stated)
Test system: Amine oxidase [flavin-containing] A (Homo sapiens, UniProt P21397)
Answer label: Satisfied

Compound: CCCNC(C)C(=O)Nc1c(C)csc1-c1nc(-c2ccccc2)no1 (configuration not stated)
Test system: Amine oxidase [flavin-containing] A (Homo sapiens, UniProt P21397)
Answer label: Satisfied
